# Assayed system: Carnitine O-palmitoyltransferase 1, liver isoform (Rattus norvegicus)
# Sequence (P32198 whole entry, canonical isoform): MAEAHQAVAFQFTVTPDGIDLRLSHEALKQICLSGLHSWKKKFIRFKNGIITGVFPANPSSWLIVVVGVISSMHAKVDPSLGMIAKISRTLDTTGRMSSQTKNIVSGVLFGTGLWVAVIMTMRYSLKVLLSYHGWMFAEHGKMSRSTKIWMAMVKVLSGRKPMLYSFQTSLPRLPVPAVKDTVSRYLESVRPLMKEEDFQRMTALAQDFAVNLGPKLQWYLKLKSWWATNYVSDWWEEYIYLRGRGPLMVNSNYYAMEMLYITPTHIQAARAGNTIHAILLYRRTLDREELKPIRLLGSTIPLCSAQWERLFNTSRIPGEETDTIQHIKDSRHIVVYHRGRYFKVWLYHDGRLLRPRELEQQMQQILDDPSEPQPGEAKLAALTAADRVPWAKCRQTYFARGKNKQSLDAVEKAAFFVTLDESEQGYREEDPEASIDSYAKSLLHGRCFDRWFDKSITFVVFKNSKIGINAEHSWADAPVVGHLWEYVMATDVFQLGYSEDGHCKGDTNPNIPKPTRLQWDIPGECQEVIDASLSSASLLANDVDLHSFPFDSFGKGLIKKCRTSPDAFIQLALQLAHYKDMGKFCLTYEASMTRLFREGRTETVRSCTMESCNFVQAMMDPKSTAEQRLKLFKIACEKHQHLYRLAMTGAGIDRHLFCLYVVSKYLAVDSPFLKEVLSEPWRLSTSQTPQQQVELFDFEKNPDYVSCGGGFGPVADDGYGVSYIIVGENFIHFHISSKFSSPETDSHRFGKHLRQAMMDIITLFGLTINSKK
# Assay name: SUPPLEMENTARY: Inhibition of Carnitine palmitoyltransferase 1, liver isoform
pIC50: −log10 of the molar value.
Use 7 as the dividing line for pIC50, with the line itself on the condition met side and lower values as condition not met.

// query Decide: pIC50 of Cc1cc(C)cc(S(=O)(=O)N2CC[S+]([O-])c3ccc(C(=O)Nc4ccc(C(=O)O)cc4)cc32)c1 (stereo unspecified) >= 7?
// result condition met

// query Try this compound too: O=C(COc1ccccc1)N1CCCC[C@@H]1c1csc(-c2cnccn2)n1
// result condition not met

// query Try this compound too: COc1ccc(Cl)cc1S(=O)(=O)N1COc2ccc(C(=O)Nc3ccc(C(=O)O)c(Cl)c3)cc21
// result condition not met

// query Try this compound too: O=C(COc1ccccc1)N1CCCC[C@@H]1c1nc(-c2ccccc2F)n[nH]1
// result condition not met

// query Try this compound too: COc1ccc(Cl)cc1S(=O)(=O)N1CCOc2ncc(C(=O)Nc3ccc(C(=O)O)cc3)cc21
// result condition not met

// query Try this compound too: O=C(COc1ccccc1)N1CCCC[C@@H]1c1csc(-c2ccncc2)n1
// result condition not met

// query Try this compound too: COc1ccc(Cl)cc1S(=O)(=O)c1cn(CCCO)c2ccc(C(=O)Nc3ccccc3)cc12
// result condition met

###

# Assayed system: Carnitine O-palmitoyltransferase 1, muscle isoform (Homo sapiens, UniProt Q92523)
# Sequence (Q92523 whole entry, canonical isoform): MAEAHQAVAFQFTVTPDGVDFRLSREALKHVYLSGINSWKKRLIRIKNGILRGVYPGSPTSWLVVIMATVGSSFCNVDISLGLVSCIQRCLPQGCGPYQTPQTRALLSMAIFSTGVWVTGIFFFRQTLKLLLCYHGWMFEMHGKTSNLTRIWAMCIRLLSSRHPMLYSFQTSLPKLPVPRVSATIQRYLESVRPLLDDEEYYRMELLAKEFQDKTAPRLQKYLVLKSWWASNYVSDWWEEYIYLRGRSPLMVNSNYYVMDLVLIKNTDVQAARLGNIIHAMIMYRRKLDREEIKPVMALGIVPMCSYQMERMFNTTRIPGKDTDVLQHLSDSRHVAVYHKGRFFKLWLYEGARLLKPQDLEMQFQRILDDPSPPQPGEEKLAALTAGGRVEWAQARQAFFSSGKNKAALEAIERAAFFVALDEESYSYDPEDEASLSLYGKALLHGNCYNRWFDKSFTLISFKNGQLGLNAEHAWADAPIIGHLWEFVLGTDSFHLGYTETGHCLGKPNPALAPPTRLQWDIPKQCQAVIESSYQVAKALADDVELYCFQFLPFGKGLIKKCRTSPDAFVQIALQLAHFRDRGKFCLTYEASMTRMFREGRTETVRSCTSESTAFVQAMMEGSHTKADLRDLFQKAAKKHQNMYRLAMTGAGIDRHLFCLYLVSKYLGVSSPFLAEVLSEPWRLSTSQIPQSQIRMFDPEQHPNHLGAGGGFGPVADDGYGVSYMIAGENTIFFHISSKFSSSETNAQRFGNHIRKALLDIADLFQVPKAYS
# Assay name: SUPPLEMENTARY: Inhibition of Carnitine palmitoyltransferase 1, muscle isoform
pIC50: −log10 of the molar value.
Reported endpoint: pIC50

Example entries and their recorded answers appear below.
>  <Compound>
O=C(COc1ccccc1)N1CCCC[C@@H]1c1nc(-c2ccc(-c3cnc[nH]3)cc2)no1

>  <pIC50>
< 4.00

$$$$
>  <Compound>
NC(=O)c1n[nH]c2cc(-c3noc([C@H]4CCCCN4C(=O)COc4ccccc4)n3)ccc12

>  <pIC50>
< 4.00

$$$$
>  <Compound>
NC(=O)c1cccc(-c2n[nH]c([C@H]3CCCCN3C(=O)COc3ccccc3)n2)c1

>  <pIC50>
< 4.00

$$$$
>  <Compound>
Cc1cc(-c2nc([C@H]3CCCCN3C(=O)COc3ccccc3)no2)[nH]n1

>  <pIC50>
4.20

$$$$
>  <Compound>
O=C(COc1ccccc1)N1CCCC[C@@H]1c1nc(-c2ccccc2)cs1

>  <pIC50>
< 4.00

$$$$
>  <Compound>
COc1ccc(Cl)cc1S(=O)(=O)c1c[nH]c2ccc(C(=O)Nc3ccc(CC(=O)O)cc3)cc12

>  <pIC50>
6.63

$$$$
>  <Compound>
COC(=O)[C@H]1CCCC[C@@H]1c1nc([C@H]2CCCCN2C(=O)COc2ccccc2)no1

>  <pIC50>
< 4.00

$$$$
>  <Compound>
O=C(COc1ccccc1)N1CCCC[C@@H]1c1nc(-c2ccc(=O)[nH]c2)no1

>  <pIC50>
< 4.00

$$$$
>  <Compound>
O=C(COc1ccccc1)N1CCNCC1c1nc(-c2ccc(N3CCOCC3)cc2)no1 (stereo not given)

>  <pIC50>
< 4.00

$$$$
>  <Compound>
COc1ccc(Cl)cc1S(=O)(=O)N1CCCc2ccc(Oc3ccc(CC(=O)O)cc3)cc21

>  <pIC50>
6.84

$$$$

Now examine the next entry.
// query Reported pIC50 for COc1ccc(Cl)cc1S(=O)(=O)N(CCC(=O)O)c1cc(C(=O)Nc2ccccc2)cc2c1OCO2 : what is it?
// result 5.55
